Values were extracted from patent US20200270309A1.

Test: Half-lives and pharmacokinetic parameters of polypeptides vs HM-1
Conditions: in vivo
Peptide text beside a SMILES is read from it. * marks the point of attachment. X23 = O=C1C=CC(=O)N1CCOCCOCCOCCOCCOCCOCCCCC(=O)*; X27 = O=C1C=CC(=O)N1CCOCCOCCOCCOCCCCCC(=O)*; X43 = O=C1C=CC(=O)N1c1ccc(CCCCCCC(=O)*)cc1
Please respond with reported MRT inf for every item in the list.
Your reply should be a number followed by the unit it is expressed in.

Reported MRT inf for C[C@H](NC(=O)CNC(=O)[C@H](CCCNC(=N)N)NC(=O)CCCCCCc1ccc(N2C(=O)C=CC2=O)cc1)C(=O)N[C@@H](CC(=O)O)C(=O)N[C@@H](CCCNC(=N)N)C(=O)N[C@@H](C)C(=O)NCC(=O)NCC(=O)NCC(=O)NCC(=O)N[C@@H](CCCNC(=N)N)C(=O)NCC(=O)N[C@@H](CC(=O)O)C(=O)O [X42] (X43-RGADRAGGGGRGD-OH) was 48.5 h

Reported MRT inf for C[C@H](NC(=O)CNC(=O)[C@H](CCCNC(=N)N)NC(=O)CCCCCOCCOCCOCCOCCN1C(=O)C=CC1=O)C(=O)N[C@@H](CC(=O)O)C(=O)N[C@@H](CCCNC(=N)N)C(=O)N[C@@H](C)C(=O)NCC(=O)NCC(=O)NCC(=O)NCC(=O)N[C@@H](CCCNC(=N)N)C(=O)NCC(=O)N[C@@H](CC(=O)O)C(=O)O [X74] (X27-RGADRAGGGGRGD-OH) was 60.4 h

Reported MRT inf for C[C@H](NC(=O)CNC(=O)[C@H](CCCNC(=N)N)NC(=O)CCCCOCCOCCOCCOCCOCCOCCN1C(=O)C=CC1=O)C(=O)N[C@@H](CC(=O)O)C(=O)N[C@@H](CCCNC(=N)N)C(=O)N[C@@H](C)C(=O)NCC(=O)NCC(=O)NCC(=O)NCC(=O)N[C@@H](CCCNC(=N)N)C(=O)NCC(=O)N[C@@H](CC(=O)O)C(=O)O [X87] (X23-RGADRAGGGGRGD-OH) was 59.8 h

====

Please respond with reported Clinical score for every item in the list.
Test system: collagen-induced arthritis
Experiment: Mouse collagen-induced arthritis (CIA) animal model
Type: in vivo
Conditions: DBA/1 mice CIA model, dose 4.0 mg/kg, subcutaneous from day 30, n=10; highest score 16
Peptide text beside a SMILES is read from it. * marks the point of attachment. X68 = O=C1C=CC(=O)N1c1ccccc1CCCCCCCCCCCC(=O)*; X59 = O=C1C=CC(=O)N1c1cccc(CCCCCCCCC(=O)*)c1; X66 = O=C1C=CC(=O)N1c1cccc(CCCCCCCC(=O)*)c1
Please state the value as a number alone, without comment.

Reported Clinical score for C[C@H](NC(=O)CNC(=O)[C@H](CCCNC(=N)N)NC(=O)CCCCCCCc1cccc(N2C(=O)C=CC2=O)c1)C(=O)N[C@@H](CC(=O)O)C(=O)N[C@@H](CCCNC(=N)N)C(=O)N[C@@H](C)C(=O)NCC(=O)NCC(=O)NCC(=O)NCC(=O)N[C@@H](CCCNC(=N)N)C(=O)NCC(=O)N[C@@H](CC(=O)O)C(=O)O [X31] (X66-RGADRAGGGGRGD-OH) was 8.75

Reported Clinical score for C[C@H](NC(=O)CNC(=O)[C@H](CCCNC(=N)N)NC(=O)CCCCCCCCc1cccc(N2C(=O)C=CC2=O)c1)C(=O)N[C@@H](CC(=O)O)C(=O)N[C@@H](CCCNC(=N)N)C(=O)N[C@@H](C)C(=O)NCC(=O)NCC(=O)NCC(=O)NCC(=O)N[C@@H](CCCNC(=N)N)C(=O)NCC(=O)N[C@@H](CC(=O)O)C(=O)O [X32] (X59-RGADRAGGGGRGD-OH) was 9.06

Reported Clinical score for C[C@H](NC(=O)CNC(=O)[C@H](CCCNC(=N)N)NC(=O)CCCCCCCCCCCc1ccccc1N1C(=O)C=CC1=O)C(=O)N[C@@H](CC(=O)O)C(=O)N[C@@H](CCCNC(=N)N)C(=O)N[C@@H](C)C(=O)NCC(=O)NCC(=O)NCC(=O)NCC(=O)N[C@@H](CCCNC(=N)N)C(=O)NCC(=O)N[C@@H](CC(=O)O)C(=O)O [X23] (X68-RGADRAGGGGRGD-OH) was 9.15
